TARGET_OR_SYSTEM: Dipeptidyl peptidase 9 (Homo sapiens)
Sequence (Q86TI2 whole entry): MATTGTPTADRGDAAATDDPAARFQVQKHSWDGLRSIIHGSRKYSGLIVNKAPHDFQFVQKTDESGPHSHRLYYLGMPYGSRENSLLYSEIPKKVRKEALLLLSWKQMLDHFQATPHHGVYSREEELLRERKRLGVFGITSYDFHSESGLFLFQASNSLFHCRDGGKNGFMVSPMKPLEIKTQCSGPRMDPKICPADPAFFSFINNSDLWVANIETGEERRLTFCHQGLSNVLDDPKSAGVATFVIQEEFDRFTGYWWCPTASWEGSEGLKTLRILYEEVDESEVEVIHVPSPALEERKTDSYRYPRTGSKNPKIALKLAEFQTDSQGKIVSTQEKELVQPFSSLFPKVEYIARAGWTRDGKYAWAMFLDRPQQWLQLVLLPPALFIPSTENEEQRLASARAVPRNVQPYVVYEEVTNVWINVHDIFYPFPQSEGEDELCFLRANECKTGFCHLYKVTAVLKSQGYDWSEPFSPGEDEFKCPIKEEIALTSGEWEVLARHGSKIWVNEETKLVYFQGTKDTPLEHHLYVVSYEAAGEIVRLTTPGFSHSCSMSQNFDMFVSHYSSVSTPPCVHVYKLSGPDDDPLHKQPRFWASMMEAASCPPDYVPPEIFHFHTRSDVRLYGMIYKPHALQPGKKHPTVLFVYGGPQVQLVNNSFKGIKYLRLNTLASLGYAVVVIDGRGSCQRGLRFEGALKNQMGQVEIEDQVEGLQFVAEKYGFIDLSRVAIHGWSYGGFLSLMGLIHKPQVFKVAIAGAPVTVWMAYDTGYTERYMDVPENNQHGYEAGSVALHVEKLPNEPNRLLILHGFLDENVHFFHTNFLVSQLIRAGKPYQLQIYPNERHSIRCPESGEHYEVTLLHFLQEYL
ASSAY: Inhibition of DPP9 (unknown origin)
ENDPOINT_NAME: pIC50
Please express pIC50 as -log10 of the molar concentration.

Field: pIC50 (Dipeptidyl peptidase 9 (Homo sapiens)). Entry: N[C@H](C(=O)N1Cc2ccccc2C1)C1CCC(O)CC1 (stereo partly specified)
9.00

---

TARGET_OR_SYSTEM: Dipeptidyl peptidase 4 (Homo sapiens, UniProt P27487)
Sequence (P27487 whole entry): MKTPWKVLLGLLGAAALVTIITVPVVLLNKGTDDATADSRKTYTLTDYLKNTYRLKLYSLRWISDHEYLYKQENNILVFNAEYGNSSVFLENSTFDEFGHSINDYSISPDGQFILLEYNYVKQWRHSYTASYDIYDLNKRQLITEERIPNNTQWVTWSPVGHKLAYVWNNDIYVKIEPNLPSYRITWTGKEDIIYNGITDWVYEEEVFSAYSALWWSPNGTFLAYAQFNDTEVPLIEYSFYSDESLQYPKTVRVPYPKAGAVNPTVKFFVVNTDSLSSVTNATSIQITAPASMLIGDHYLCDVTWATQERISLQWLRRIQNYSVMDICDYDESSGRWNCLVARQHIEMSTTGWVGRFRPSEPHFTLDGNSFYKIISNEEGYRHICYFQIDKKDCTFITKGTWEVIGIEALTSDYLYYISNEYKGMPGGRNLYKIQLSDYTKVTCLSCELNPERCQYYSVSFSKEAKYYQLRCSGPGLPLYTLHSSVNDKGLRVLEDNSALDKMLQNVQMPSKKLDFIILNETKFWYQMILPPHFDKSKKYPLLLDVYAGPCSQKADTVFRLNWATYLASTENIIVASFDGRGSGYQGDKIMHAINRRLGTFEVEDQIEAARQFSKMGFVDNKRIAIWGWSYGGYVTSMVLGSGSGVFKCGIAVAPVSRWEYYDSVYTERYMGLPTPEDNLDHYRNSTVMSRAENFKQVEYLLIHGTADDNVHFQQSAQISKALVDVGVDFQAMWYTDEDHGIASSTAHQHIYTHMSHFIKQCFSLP
ASSAY: Inhibition of human seminal plasma DPP4 using Ala-Pro-paranitroanilide as substrate incubated for 15 mins by […]
Format: cell-free
pIC50: −log10 of the molar value.
compounds and their reported pIC50

These recorded examples may help you get a feel for the data.
>  <ENTRY_SMILES>
O=C(NCc1ccncc1)OC12CC3CC(CC(NCC(=O)N4Cc5ccccc5C4)(C3)C1)C2

>  <pIC50>
< 5.00

$$$$
>  <ENTRY_SMILES>
CC(C)(C)COC(=O)NC12CC3CC(CC(NCC(=O)N4Cc5ccccc5C4)(C3)C1)C2

>  <pIC50>
< 5.00

$$$$
>  <ENTRY_SMILES>
O=C(CNC12CC3CC(C1)CC(NCC(=O)N1Cc4ccccc4C1)(C3)C2)N1Cc2ccccc2C1

>  <pIC50>
< 5.00

$$$$
>  <ENTRY_SMILES>
NC12CC3CC(C1)CC(NCC(=O)N1Cc4ccc(F)cc4C1)(C3)C2

>  <pIC50>
< 5.00

$$$$
>  <ENTRY_SMILES>
O=C(NCc1ccccn1)OC12CC3CC(CC(NCC(=O)N4Cc5ccccc5C4)(C3)C1)C2

>  <pIC50>
< 5.00

$$$$

Then there is this compound:
Data request, read-out pIC50, for "CC(C)(C)NC(=O)OC12CC3CC(CC(NCC(=O)N4Cc5ccccc5C4)(C3)C1)C2"
< 5.00
